So I've got a bunch of compounds here, and I need their half-life at 2 μM values.
- protocol: Hepatocyte stability (parent drug disappearance in cryopreserved hepatocytes)
- Assay type: in vitro ADME, human
- conditionSummary: human, cryopreserved human hepatocytes, human hepatocytes, 2 μM substrate, 37° C.; Table 3

Recorded results for 6 compounds are shown here.
[[record]]
compound = "C[C@H](Nc1nc(N)nc(N)c1C#N)c1nc2c(Cl)ccc(Cl)c2c(=O)n1-c1cccnc1 [Compound 23]"
measurement = "> 10 h"

[[record]]
compound = "C[C@H](Nc1nc(N)nc(N)c1C#N)c1nc2c(F)ccc(Cl)c2c(=O)n1-c1cccnc1 [Compound 24]"
measurement = "> 10 h"

[[record]]
compound = "Cc1ncccc1-n1c([C@H](C)Nc2nc(N)nc(N)c2C#N)nc2cccc(Cl)c2c1=O (atropisomer, axis not shown) [Compound 39]"
measurement = "3 h"

[[record]]
compound = "N#Cc1c(N)nc(N)nc1N[C@H](c1nc2c(Cl)ccc(Cl)c2c(=O)n1-c1cccnc1)C1CC1 [Compound 28]"
measurement = "9 h"

[[record]]
compound = "N#Cc1c(N)nc(N)nc1N[C@@H](CC1CC1)c1nc2c(F)ccc(Cl)c2c(=O)n1-c1cccnc1 [Compound 29]"
measurement = "> 10 h"

[[record]]
compound = "C[C@H](Nc1nc(N)nc(N)c1C#N)c1nc2c(F)ccc(Cl)c2c(=O)n1-c1cncc(F)c1 [Compound 31]"
measurement = "> 10 h"


Your task in this section: give half-life at 2 μM for each listed record.
1. Cc1ncc(F)cc1-n1c([C@H](C)Nc2nc(N)nc(N)c2C#N)nc2cccc(Cl)c2c1=O (atropisomer, axis not shown) [Compound 45]
2. N#Cc1c(N)nc(N)nc1N[C@H](c1nc2c(F)ccc(Cl)c2c(=O)n1-c1cncc(F)c1)C1CC1 [Compound 33]

4 h
> 10 h
